test system: PC9; test: mass response relative to vehicle control (EMD distance of treated vs reference mass distribution minus control baseline) (% of mean reference cell mass); higher = larger drug-induced change in single-cell mass distribution (stronger response); settings: 1 µM
Quantity: mass response
Number, no unit, nothing else.

Prompt: Name the recorded mass response of COc1cc(N2CCC(N3CCN(C)CC3)CC2)ccc1Nc1ncc(Cl)c(Nc2ccccc2P(C)(C)=O)n1 , assay system PC9.
Completion: 33.6

Prompt: Name the recorded mass response of CN(C)C/C=C/C(=O)Nc1cc2c(Nc3ccc(F)c(Cl)c3)ncnc2cc1O[C@H]1CCOC1 , assay system PC9.
Completion: 19.1

Prompt: Name the recorded mass response of C#Cc1cccc(Nc2ncnc3cc(OCCOC)c(OCCOC)cc23)c1 , assay system PC9.
Completion: 17.2

Prompt: Name the recorded mass response of COc1cc([C@@H]2c3cc4c(cc3[C@@H](O[C@@H]3O[C@@H]5CO[C@@H](C)O[C@H]5[C@H](O)[C@H]3O)[C@H]3COC(=O)[C@H]23)OCO4)cc(OC)c1O [Etoposide] , assay system PC9.
Completion: 12.3

Prompt: Name the recorded mass response of O=C(O)C1(C(=O)O)CCC1.[NH2-].[NH2-].[Pt+2] , assay system PC9.
Completion: 1.45

Prompt: Name the recorded mass response of C/C(=C\c1csc(C)n1)[C@@H]1C[C@@H]2O[C@]2(C)CCC[C@H](C)[C@H](O)[C@@H](C)C(=O)C(C)(C)[C@@H](O)CC(=O)N1 [Ixabepilone] , assay system PC9.
Completion: 36.7

---

system: MDA-MB-361; test: mass response relative to vehicle control (EMD distance of treated vs reference mass distribution minus control baseline) (% of mean reference cell mass); higher = larger drug-induced change in single-cell mass distribution (stronger response); conditions: 10 µM
Quantity: mass response
Number, no unit, nothing else.

Prompt: Answer with the recorded mass response for the compound listed here: N.N.[Cl][Pt][Cl] [Cisplatin]
Completion: 3.9

Prompt: Answer with the recorded mass response for the compound listed here: COc1cccc2c1C(=O)c1c(O)c3c(c(O)c1C2=O)C[C@@](O)(C(=O)CO)C[C@@H]3O[C@H]1C[C@H](N)[C@@H](O)[C@H](C)O1 [Epirubicin]
Completion: 13.1

Prompt: Answer with the recorded mass response for the compound listed here: O=C(c1cc(Cc2n[nH]c(=O)c3ccccc23)ccc1F)N1CCN(C(=O)C2CC2)CC1
Completion: 17.9

Prompt: Answer with the recorded mass response for the compound listed here: CS(=O)(=O)CCNCc1ccc(-c2ccc3ncnc(Nc4ccc(OCc5cccc(F)c5)c(Cl)c4)c3c2)o1
Completion: 19.6

---

So I've got a bunch of compounds here, and I need their mass response values.
test system: PC9; assay: mass response relative to vehicle control (EMD distance of treated vs reference mass distribution minus control baseline) (% of mean reference cell mass); higher = larger drug-induced change in single-cell mass distribution (stronger response); settings: 0.5 µM
Number, no unit, nothing else.

Prompt: Name the recorded mass response of COc1cc2ncnc(Nc3ccc(F)c(Cl)c3)c2cc1OCCCN1CCOCC1 [Gefitinib] , assay system PC9.
Completion: 23.1

Prompt: Name the recorded mass response of COc1cc2ncnc(Nc3ccc(F)c(Cl)c3)c2cc1NC(=O)/C=C/CN1CCCCC1 [Dacomitinib] , assay system PC9.
Completion: 14.5

Prompt: Name the recorded mass response of COc1cc(N2CCC(N3CCN(C)CC3)CC2)ccc1Nc1ncc(Cl)c(Nc2ccccc2P(C)(C)=O)n1 [Brigatinib] , assay system PC9.
Completion: 22.4

Prompt: Name the recorded mass response of C=CC(=O)Nc1cc(Nc2nccc(-c3cn(C)c4ccccc34)n2)c(OC)cc1N(C)CCN(C)C [Osimertinib] , assay system PC9.
Completion: 9.37
